I'd appreciate it if you could supply IC50 values for the items below.
target: Vascular endothelial growth factor receptor 2 (Homo sapiens, UniProt P35968); assay: Inhibition of VEGF-induced human VEGFR2 autophosphorylation transfected in CHO cells measured after 2 hrs by chemiluminescence assay; format: cell-based
Sequence (P35968 whole entry): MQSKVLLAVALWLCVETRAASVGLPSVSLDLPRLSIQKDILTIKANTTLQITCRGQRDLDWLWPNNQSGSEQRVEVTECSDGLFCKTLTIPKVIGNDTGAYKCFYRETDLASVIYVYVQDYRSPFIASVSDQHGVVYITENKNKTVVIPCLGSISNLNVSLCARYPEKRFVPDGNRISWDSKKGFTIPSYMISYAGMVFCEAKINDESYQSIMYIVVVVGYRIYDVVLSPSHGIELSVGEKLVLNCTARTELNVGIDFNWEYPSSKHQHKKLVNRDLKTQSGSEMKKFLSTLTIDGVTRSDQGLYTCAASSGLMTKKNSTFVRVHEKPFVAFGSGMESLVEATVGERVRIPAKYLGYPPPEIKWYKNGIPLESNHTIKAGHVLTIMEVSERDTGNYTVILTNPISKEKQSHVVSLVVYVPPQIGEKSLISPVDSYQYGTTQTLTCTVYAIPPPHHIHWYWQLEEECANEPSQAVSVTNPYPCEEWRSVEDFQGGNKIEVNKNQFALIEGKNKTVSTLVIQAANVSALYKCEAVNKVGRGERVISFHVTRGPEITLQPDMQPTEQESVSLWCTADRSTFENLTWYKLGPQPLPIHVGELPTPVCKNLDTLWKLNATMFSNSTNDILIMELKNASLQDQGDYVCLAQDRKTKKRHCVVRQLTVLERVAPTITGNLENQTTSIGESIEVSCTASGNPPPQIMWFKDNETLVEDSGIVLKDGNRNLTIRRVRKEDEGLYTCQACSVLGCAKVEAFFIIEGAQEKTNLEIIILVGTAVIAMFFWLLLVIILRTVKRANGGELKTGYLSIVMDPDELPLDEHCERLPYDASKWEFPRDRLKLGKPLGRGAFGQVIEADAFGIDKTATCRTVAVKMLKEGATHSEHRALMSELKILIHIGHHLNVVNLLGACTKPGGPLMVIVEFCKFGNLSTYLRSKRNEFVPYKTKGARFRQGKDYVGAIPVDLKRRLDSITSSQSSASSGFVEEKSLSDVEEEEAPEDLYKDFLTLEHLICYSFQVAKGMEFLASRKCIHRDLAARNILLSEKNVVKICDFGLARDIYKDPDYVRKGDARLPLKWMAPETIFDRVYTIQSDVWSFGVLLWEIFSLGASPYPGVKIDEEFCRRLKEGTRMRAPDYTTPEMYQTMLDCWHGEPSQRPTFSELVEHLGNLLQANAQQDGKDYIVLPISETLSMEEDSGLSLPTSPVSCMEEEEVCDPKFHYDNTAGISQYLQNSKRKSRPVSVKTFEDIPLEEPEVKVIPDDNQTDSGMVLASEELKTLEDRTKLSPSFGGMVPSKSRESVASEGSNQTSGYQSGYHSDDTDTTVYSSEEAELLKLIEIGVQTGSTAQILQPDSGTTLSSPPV
Give your result in nM as a bare value.

# input Recorded IC50 for "CCN1CCN(Cc2ccc(NC(=O)Nc3ccc(Oc4cc(NC)ncn4)cc3)cc2C(F)(F)F)CC1" , please?
# output 230

# input Repeat with "Nc1nccc(Oc2ccc3c(C(=O)Nc4cccc(C(F)(F)F)c4)cccc3c2)n1"
# output 4.2

# input Now try "O=C(Nc1cccc(C(F)(F)F)c1)c1cccc2cc(Oc3cc(CO)ncn3)ccc12" .
# output 4.6

Where do the numbers come from? From ChEMBL document CHEMBL5252510.
